Collected phosphorylation enrichment values appear next to each entry.
Target: Fes (UniProt P07332)
Sequence (P07332 whole entry, looked up): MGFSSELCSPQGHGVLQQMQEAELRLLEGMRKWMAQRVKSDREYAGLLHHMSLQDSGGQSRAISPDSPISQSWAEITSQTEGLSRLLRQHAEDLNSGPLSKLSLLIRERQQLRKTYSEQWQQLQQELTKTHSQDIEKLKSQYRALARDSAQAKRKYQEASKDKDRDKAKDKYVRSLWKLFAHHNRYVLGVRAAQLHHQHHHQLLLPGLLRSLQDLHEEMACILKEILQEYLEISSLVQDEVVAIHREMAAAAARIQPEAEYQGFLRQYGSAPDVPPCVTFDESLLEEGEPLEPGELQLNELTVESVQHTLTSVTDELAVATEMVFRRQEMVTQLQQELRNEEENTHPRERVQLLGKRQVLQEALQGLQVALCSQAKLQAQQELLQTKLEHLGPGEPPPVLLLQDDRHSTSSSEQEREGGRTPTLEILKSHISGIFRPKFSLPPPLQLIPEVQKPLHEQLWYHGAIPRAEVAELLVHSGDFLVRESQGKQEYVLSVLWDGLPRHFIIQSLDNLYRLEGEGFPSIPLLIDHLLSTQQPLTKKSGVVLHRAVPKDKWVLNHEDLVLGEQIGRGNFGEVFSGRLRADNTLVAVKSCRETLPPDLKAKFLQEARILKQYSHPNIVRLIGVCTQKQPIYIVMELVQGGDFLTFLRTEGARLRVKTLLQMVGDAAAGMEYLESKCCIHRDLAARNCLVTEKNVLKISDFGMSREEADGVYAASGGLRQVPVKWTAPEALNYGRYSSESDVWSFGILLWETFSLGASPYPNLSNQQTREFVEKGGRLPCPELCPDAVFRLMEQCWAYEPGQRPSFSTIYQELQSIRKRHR
Experiment: phosphorylation enrichment, bacterial display (enrichment ratio); higher = better substrate or ligand; peptides without Tyr show the background
Keep it simple and answer with nothing but the number.

Examples with their reported phosphorylation enrichment follow.
In [3]: df
Out[3]:
                                   seq        assayed_target  reading
0          FRRITYHNWRH [PDE6B_Y556_YF]  Fes (UniProt P07332)    0.635
1          TSGVVYKARNK [CDK2_Y19_Y15S]  Fes (UniProt P07332)    0.661
2        LYSGDCYRIQG [DDR2_Y740_Y740C]  Fes (UniProt P07332)     1.18
3             RTLIRYANLGN [BEST1_Y131]  Fes (UniProt P07332)     1.14
4  EEQKKYFNATK [SCN5A_Y1494_M1498T_YF]  Fes (UniProt P07332)    0.729

Recorded phosphorylation enrichment for MRAIIYNSSTA [PLEKHA7_Y243_L241I] , please?
0.838

Another: RHPEVYHHLGI [NVL_Y290_V295I]
0.835

What do you have for CRVEPYGENFN [APOA4_Y310_R305C] ?
1.57

* * *

Target: c-Src SH2;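 also: peptide library displayed on the E. coli surface as eCPX fusions, selected cells deep-sequenced, score is each peptide's frequency after selection divided by its frequency in the input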
Assay: SH2 binding enrichment of the phosphorylated peptide, bacterial display (enrichment ratio); higher = better substrate or ligand; peptides without Tyr show the background
Assign y to entries whose SH2 binding enrichment meets or exceeds 0.5; assign n to the rest.

Example entries begin here.
In [3]: df
Out[3]:
                               seq  answer_label
0       PSRKDYETYQP [CTNND2_Y1154]             y
1      FRRITYHNWRH [PDE6B_Y556_YF]             n
2  FSKQIYKGMVA [PCDH15_Y931_R929Q]             n

Entry FADIAYNYRQG [PAH_Y166_H170Q] : is its SH2 binding enrichment no less than 0.5?
n

Subsequent entry: MKSIKYMDKEV [CCDC60_Y41_I46V]
n

Next entry: DNEYAYLKAII [HNF4A_Y288]
n

* * *

Biological target: Fyn (UniProt P06241)
Sequence (P06241 whole entry, looked up): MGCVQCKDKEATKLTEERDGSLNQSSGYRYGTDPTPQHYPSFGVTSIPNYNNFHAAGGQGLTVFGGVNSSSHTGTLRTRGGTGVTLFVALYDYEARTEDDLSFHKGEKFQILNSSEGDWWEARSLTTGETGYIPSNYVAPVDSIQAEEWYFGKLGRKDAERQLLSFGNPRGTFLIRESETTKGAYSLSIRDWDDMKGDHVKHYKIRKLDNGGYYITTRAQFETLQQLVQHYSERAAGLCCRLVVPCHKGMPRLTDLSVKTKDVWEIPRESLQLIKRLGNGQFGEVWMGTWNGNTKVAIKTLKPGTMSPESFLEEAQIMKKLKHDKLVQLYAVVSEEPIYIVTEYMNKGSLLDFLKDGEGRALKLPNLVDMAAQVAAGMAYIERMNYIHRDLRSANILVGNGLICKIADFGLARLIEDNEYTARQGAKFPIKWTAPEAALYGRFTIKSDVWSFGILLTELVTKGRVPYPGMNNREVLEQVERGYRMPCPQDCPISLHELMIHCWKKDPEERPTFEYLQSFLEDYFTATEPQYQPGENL
Test: phosphorylation enrichment, bacterial display (enrichment ratio); higher = better substrate or ligand; peptides without Tyr show the background
readout.type: phosphorylation enrichment

Dear colleague, I am looking for the recorded phosphorylation enrichment of the following sequence: FIIFIYAMKKK [SLCO1B1_Y645_L643F_YF]
0.848

Another sequence: LENSTYQFIRV [CRB1_Y760_YF]
2.87

* * *

Target: EPHB2 (UniProt P29323)
Sequence (P29323 whole entry, looked up): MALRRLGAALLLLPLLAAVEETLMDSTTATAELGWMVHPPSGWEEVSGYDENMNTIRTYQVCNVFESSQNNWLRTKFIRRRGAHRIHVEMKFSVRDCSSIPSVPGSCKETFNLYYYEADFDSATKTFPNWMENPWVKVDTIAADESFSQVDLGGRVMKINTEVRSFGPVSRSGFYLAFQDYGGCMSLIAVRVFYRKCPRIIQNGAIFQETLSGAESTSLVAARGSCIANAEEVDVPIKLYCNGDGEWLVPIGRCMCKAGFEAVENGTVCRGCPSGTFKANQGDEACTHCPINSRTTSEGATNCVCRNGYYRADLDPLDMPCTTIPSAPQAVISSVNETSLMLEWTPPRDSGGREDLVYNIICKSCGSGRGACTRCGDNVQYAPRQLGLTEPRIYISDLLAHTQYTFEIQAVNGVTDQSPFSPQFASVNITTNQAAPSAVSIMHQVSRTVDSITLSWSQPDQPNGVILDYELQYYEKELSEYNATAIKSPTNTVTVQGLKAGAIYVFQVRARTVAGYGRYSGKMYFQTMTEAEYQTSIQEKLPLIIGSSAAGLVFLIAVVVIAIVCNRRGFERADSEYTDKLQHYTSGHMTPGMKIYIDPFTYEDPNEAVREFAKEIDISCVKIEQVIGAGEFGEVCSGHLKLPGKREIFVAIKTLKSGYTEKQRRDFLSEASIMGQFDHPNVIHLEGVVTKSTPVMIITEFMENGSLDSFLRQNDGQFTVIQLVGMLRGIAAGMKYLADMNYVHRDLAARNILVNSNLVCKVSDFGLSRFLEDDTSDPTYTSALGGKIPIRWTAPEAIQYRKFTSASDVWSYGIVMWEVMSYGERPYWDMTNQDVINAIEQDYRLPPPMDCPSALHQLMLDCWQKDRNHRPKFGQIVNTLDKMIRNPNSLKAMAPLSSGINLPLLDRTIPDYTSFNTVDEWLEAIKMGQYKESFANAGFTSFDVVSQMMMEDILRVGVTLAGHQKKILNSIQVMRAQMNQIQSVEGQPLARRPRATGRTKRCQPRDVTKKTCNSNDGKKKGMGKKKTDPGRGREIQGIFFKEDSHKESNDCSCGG
Assay: phosphorylation enrichment, bacterial display (enrichment ratio); higher = better substrate or ligand; peptides without Tyr show the background
Decision: phosphorylation enrichment compared against 0.5; not below it gives YES, below it gives NO.

>>> df
                                 seq  answer_label
0    HCEDGYPGGSD [CTNND1_Y221_Y217C]           YES
1          ATDLAYFLVRK [ASL_Y375_YF]           YES
2           LYSINYLHFGE [KDM4C_Y201]           YES
3          VLRRVYVDFEG [KMT2B_Y1707]           YES
4     RSSNTYTLMDV [ALCAM_Y298_T301M]           YES
5      ATKNDYWAMLA [WWOX_Y287_P282A]           YES
6  SLHPGYNFRFA [P2RX7_Y291_Y288H_YF]            NO
7      NVDGKYSYLKV [GRM3_Y478_G475D]           YES
8   HDHFGYRQSVT [CD55_Y245_R240H_YF]            NO
9    PQDVTYARLHS [LILRB4_Y412_Q414R]           YES

Assess whether reported phosphorylation enrichment for QHVPDYRQNVF [PCDHGA1_Y890_YF] sits at 0.5 or higher.
YES

Okay, and ISDDKYGRIRL [ARCN1_Y310] ?
YES

Continue with TVSTGYTQPQP [SARG_Y259_R258G]
NO

And the next one, SIKDKHVTALY [KCNH2_Y611_Y611H] ?
NO

Same for LHVGFYESDVM [A2M_Y708_R704H]
YES

What do you get for MDNQEYKDAYK [BRDT_Y331] ?
NO

Field entry: FRRITYHNWRH [PDE6B_Y556_YF]
YES

Okay, and QNTVDYFDLFG [PTPN11_Y62_G60V_YF] ?
YES

For LVMFFYAIFGM [SCN1A_Y1684_I1683F] then?
YES

Please give the result for AGLVQYYMEHH [PTPN11_Y80_E76G] too.
YES

And for GDYLSYREFHL [ERBIN_Y1107_S1112L] ?
YES

Entry DPGVSYHTREE [PDHA1_Y301_R302H] please
NO

Also CDIPRYIVSQL [MAST2_Y461] ?
YES

Can you handle PPGRSYSPFDF [TNS1_Y793_YF] next?
YES

Consider next the sequence ADSLRYIYPKL [EIF2B3_Y92] in the same way.
NO

Try this sequence too: VLTSKYHGGGG [HBA1_Y141_R142H]
NO

Do the same for PLFKIYVAELI [MRPL28_Y230] please
YES

Field entry: KWTVDYLGQVG [TYW5_Y48_S50G]
NO

Lookup EGWQVYRLGAR [MISP_Y95]
NO

Follow-up entry: LRNIDYYRLDG [ATRX_Y2083]
YES

And what about the sequence ECIEFYELDKK [PMM2_Y145_R141C] ?
YES

* * *

Tested on: Fer (mouse)
Experiment: phosphorylation enrichment, bacterial display (enrichment ratio); higher = better substrate or ligand; peptides without Tyr show the background
readout.type: phosphorylation enrichment
I'd appreciate a reply containing only the number, no unit.

In the examples that follow, each entry is paired with its recorded phosphorylation enrichment.
In [3]: df
Out[3]:
                                  seq  reading
0           KQRKEYMHRRQ [IQGAP2_Y710]    0.437
1        KNDSKYVVKGN [KIT_Y823_N822K]    0.258
2       SVTCTFSPALN [TP53_Y126_Y126F]    0.673
3            TNIKRYHIAKV [HARS1_Y150]    0.278
4        ITNLLYHLVGW [GBA_Y412_V414L]     3.17
5       QRASDYYSQQM [GBP6_Y333_A331S]    0.453
6  GCLSKYSGVFS [TUBGCP6_Y1624_V1621L]    0.514
7     KLFRVYCDMNT [FGB_Y269_P265L_YF]    0.523
8                         IPQEEYTATGL    0.562
9         LYEDHYLLGTS [ASS1_Y87_R86H]     16.1

Here is the next item to consider.
Field request: phosphorylation enrichment | item: GEDLSYGDVPP [IRS1_Y151]
0.709

* * *

Target: MERTK (UniProt Q12866)
Sequence (Q12866 whole entry, looked up): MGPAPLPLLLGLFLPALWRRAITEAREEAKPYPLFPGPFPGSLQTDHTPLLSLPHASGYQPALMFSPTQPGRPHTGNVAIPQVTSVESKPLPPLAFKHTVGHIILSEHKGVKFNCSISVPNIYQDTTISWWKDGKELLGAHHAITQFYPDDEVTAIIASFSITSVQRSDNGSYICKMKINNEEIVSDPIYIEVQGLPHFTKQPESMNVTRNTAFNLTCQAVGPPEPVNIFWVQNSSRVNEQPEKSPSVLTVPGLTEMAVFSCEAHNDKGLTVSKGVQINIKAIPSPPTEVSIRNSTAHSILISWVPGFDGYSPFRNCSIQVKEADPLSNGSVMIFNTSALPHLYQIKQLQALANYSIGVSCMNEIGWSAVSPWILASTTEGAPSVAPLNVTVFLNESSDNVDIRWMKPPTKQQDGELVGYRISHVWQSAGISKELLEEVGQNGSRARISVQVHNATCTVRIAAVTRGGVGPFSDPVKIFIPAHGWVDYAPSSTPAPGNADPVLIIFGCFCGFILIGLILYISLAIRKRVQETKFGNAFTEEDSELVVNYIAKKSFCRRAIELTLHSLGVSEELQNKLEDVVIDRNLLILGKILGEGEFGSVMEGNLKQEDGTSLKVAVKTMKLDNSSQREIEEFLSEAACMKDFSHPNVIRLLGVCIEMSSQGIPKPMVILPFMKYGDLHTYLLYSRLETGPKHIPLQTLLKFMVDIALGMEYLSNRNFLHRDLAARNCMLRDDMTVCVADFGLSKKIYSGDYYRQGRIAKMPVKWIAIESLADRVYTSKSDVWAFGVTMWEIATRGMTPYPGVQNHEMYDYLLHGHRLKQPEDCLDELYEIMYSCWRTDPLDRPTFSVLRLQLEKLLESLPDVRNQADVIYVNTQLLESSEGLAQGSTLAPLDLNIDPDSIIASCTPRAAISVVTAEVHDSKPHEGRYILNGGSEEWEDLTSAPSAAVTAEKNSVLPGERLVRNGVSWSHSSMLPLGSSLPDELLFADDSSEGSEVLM
Assay: phosphorylation enrichment, bacterial display (enrichment ratio); higher = better substrate or ligand; peptides without Tyr show the background
If the reported phosphorylation enrichment equals or exceeds 0.7, assign YES. If not, assign NO.

As a guide, the following entries are already answered.
>>> print(df.to_string())
                              seq  answer_label
0         RVLKLYGCSPS [ASTL_Y279]            NO
1        CGTPTYLAPEV [CHEK2_Y390]           YES
2       GQAPGYSFTAA [CYCS_Y47_YF]            NO
3        ASSPVYVPTTR [GATA6_Y188]            NO
4  LDPDSYNKFEN [FOXC1_Y159_M161K]           YES

From here, focus on the item given below.
Textbook exercise: given the entry LRVHSYKSMQH [DRC7_Y516_P521H] , state whether its phosphorylation enrichment is greater than or equal to 0.7.
YES

* * *

Target: EPHB2 (UniProt P29323)
Experiment: phosphorylation enrichment, bacterial display (enrichment ratio); higher = better substrate or ligand; peptides without Tyr show the background
readout.type: phosphorylation enrichment
Give the figure only, with no unit attached.

# example entries with known answers
In [3]: df
Out[3]:
                               seq          assayed_target  reading
0    MKSIKYMDKEV [CCDC60_Y41_I46V]  EPHB2 (UniProt P29323)    0.316
1         AFLLLYFNDTH [BMP15_Y235]  EPHB2 (UniProt P29323)    0.496
2  LDTFIYDAAVL [GRIN2A_Y730_A727T]  EPHB2 (UniProt P29323)     2.05
3    YKEQGYHRLPS [RIN1_Y681_P686S]  EPHB2 (UniProt P29323)    0.366
4     LSIWPYLQKID [MFSD8_Y63_M58L]  EPHB2 (UniProt P29323)    0.759
5    SLIDMYSEVPD [OPA1_Y268_L272P]  EPHB2 (UniProt P29323)    0.679

# next sequence below
# query: phosphorylation enrichment of entry ISDNAYQFMLT [MYH7_Y162_YF]
0.526
